- Method description: Nonclinical pharmacokinetics in rats
- Parameters: species or system rat
- Study conditions: male, in vivo; rat IV infusion 3 hours, M, 167 ng/kg/min
Assay readout: AUC(0-inf) (ng·h/mL)
Express your answer in ng·h/mL, writing the number without its unit.

Form: substance = H-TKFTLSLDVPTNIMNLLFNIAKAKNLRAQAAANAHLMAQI-NH2 [SEQ ID NO: 1] ; AUC(0-inf) = 2.43

----------
- Method description: Nonclinical pharmacokinetics in cynomolgus monkeys
- Study conditions: female, cynomolgus monkey, in vivo; cyno IV infusion 3 hours, F, 33.3 ng/kg/min
- Protocol: A sandwich immunoassay was developed using an affinity purified goat polyclonal antibody, specific to h-SCP that was pre-coated onto a microplate with integrated electrodes. h-SCP molecules present in the sample will bind to the capture polyclonal antibody coated on the plate. […] This conjugated antibody will bind to the h-SCP molecules captured on the microplate and the quantity of analyte was determined by electrochemiluminescence. […]
Assay readout: Cmax
Note: state the figure and append the unit.

Quick note, Cmax for H-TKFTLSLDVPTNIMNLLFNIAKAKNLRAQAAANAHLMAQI-NH2 [SEQ ID NO: 1] landed at 0.958 ng/mL
